Assignment: determine reported pEC50 for the given compounds.
- System Name: hGPR40 (Homo sapiens)
- Sequence (O14842 whole entry): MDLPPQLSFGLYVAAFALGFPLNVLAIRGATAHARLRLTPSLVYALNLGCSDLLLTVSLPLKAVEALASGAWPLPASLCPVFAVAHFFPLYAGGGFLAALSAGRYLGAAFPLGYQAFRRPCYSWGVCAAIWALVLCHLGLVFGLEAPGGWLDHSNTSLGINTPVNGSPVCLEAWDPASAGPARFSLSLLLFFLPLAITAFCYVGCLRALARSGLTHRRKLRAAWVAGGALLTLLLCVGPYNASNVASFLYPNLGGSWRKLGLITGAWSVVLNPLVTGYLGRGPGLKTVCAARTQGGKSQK
- Protocol Summary: GPR40 IP-One HTRF assay in HEK293/GPR40 inducible cell lines
- Format: cell-based
- Design: expressed in transfected cells
- Condition Info: HEK293 cells with tetracycline-inducible human GPR40; read-out: hGPR40 IP1 EC50
Units for pEC50: none; it is -log10 of a concentration expressed in mol/L.

# query: pEC50 of entry `COc1cc(N2CCC(Oc3ccc(N4N=C(C(F)(F)F)[C@@H](C)[C@@H]4CC(=O)O)cc3)CC2)c(Cl)cn1`
7.70

Also need `COc1cc(N2CCC(Oc3ccc(N4N=C(C(F)(F)F)[C@@H](C)[C@@H]4CC(=O)O)cc3)CC2)c(F)cn1` , thanks.
7.03

Also need `CCOc1ccc(F)c(N2CC[C@@H](Oc3ccc(N4N=C(c5ccc(C#N)cc5)[C@@H](CC)[C@@H]4CC(=O)O)cc3)[C@H](C)C2)c1` , thanks.
7.70

Also need `COc1cccc(N2CCC(Oc3ccc(N4N=C(C(F)(F)F)[C@@H](C)[C@@H]4CC(=O)O)cc3)CC2)c1` , thanks.
6.97

* * *

- System Name: UniProtKB O14842
- Protocol Summary: FDSS-based intracellular calcium assay
- Format: cell-based
- Parameters: 3xFLAG; expressed in transfected cells
- Condition Info: intracellular Ca2+ response, cells expressing GPR40
Property Measured: log10 of EC50 (log10 of the value in µM)
Log scale reminder: EC50 in µM, then log10 taken.

# query: log10 of EC50 of entry CC[C@@H]1C(C(F)(F)F)=NN(c2ccc(OC3CCN(c4cc(OC)ccc4F)CC3)cc2)[C@H]1CC(=O)O (single isomer, unassigned) [Example 88, Isomer 2]
0.87

Also need C[C@@H]1C(C(F)(F)F)=NN(c2ccc(OC3CCN(c4cccc(F)c4)CC3)cc2)[C@H]1CC(=O)O [Example 48] , thanks.
0.36

Also need CC(C)Oc1ccc(F)c(N2CCC(Oc3ccc(N4N=C(C(F)(F)F)[C@@H](C)[C@@H]4CC(=O)O)cc3)CC2)c1 [Example 9] , thanks.
-0.43

Also need CCc1ccc(F)c(N2CCC(Oc3ccc(N4N=C(C(F)(F)F)[C@@H](C)[C@@H]4CC(=O)O)cc3)CC2)c1 [Example 65] , thanks.
-0.23

Also need CCOc1cc(N2CC[C@H](Oc3ccc(N4N=C(C(F)(F)F)[C@@H](C)[C@@H]4CC(=O)O)cc3)[C@@H](C)C2)c(F)cn1 [Example 84] , thanks.
0.41

Also need CCC1C(C(F)(F)F)=NN(c2ccc(OC3CCN(c4cc(OC)ncc4Cl)CC3C)cc2)C1CC(=O)O (single isomer, unassigned) [Example 86, Isomer 3] , thanks.
0.29
